// data source = the EternaBench riboswitch data

# Test system: MS2 coat protein
# Protocol summary: apparent Kd, MS2 coat protein; higher = weaker binding; RNA-MaP array; FMN 200 µM where present
# Condition context: ligand present: flavin mononucleotide; designed as: ON switch for flavin mononucleotide
Everything with apparent Kd lower than 30 nM is f; everything else, including exactly 30 nM, is t.

Examples from the recorded data:
>>> assigned_category("GUAGCAUAAUCAGGAUAUUCAGAGAAUAAAUAAACAUGAGGAUCACCCAUGUGGCGAAAGCCUAGGGAGAAGGGAUAAUGCUAC")
"f"
>>> assigned_category("UUGGACGUCGUAGGAUAUGUAGGAUAUUCCUACAUGAGGAUCACCCAUGUUGACAUGCAAGAAGGACAGAAGGACGAUGUCCAU")
"f"
>>> assigned_category("GACUUUCGGGCAGGAUAUGGGUGCCGUCAAGACAUGAGGAUCACCCAUGUCCCAUACACGAGCGCUCAGAAGGGCUCAUUGUAG")
"t"
>>> assigned_category("GUCGGAAACGACAAAAGUAGCAUAGGAGAAGGCAUGUCAUAAGACAUGAGGAUCACCCAUGUCCGUGAGGAUAUCCUAUGCUAC")
"f"
>>> assigned_category("UUCAUCAAUGAAGGAUAUCUAUAUCCAACAUGAGGAUCACCCAUGUUGAGGAUCACCCAUGUAAAGGAGAAGGUUAAUAUAACU")
"t"

[ask] Textbook exercise: given the entry `UGGUCAUCAUCAGGAUAUUAACAUGGGCUACAUUAAGAAGGGAUAGUGAGAUACGAACUGAACGCACAUGAGGAUCACCCAUGU` , state whether its apparent Kd is greater than or equal to 30 nM.
[reply] f

[ask] For this sequence, is measured apparent Kd 30 nM or higher? `UGUACUAUAAGGUUAAUUGUAUAUUGAGAAGGCAUUCACAUGAGGAUCACCCAUGUAACAUGGGAUGAGGAUAUCAAUUUGUAC`
[reply] t

====

# Tested on: MS2 coat protein
# Protocol summary: apparent Kd, MS2 coat protein; higher = weaker binding; RNA-MaP array; FMN 200 µM where present
# Condition context: designed as: OFF switch for flavin mononucleotide; no ligand
apparent Kd values, listed per item

The examples below pair each entry with its known result.
>>> result("GUCGUGUGAGGAUAUGGAUAGUAGCAGUGGCGGUCGGCGACCUAGAAGGCACAUGAGGAUCACCCAUGUAAGAG")
"40.6 nM"
>>> result("GCGAAUAACGAGGAUAUCGUAUCGGAAACGAUACGAGAAGGUGUAACAUGAGGAUCACCCAUGUUCCUCAACGC")
"37.5 nM"
>>> result("CUCGCGUUAGGAUAUGCUAGCUGAGAAUAAUCUGCAGCGGUGCAGAAGGAACAUGAGGAUCACCCAUGUAGGGA")
"278 nM"
>>> result("UUUCCGCGAGGAUAUGCGGGCUGUGCUUUUCAUUUCUUACCACAUGAGGAUCACCCAUGUAGAAGGUGCUUCUU")
"154 nM"
>>> result("AGACGGAGCAGAGGAUAUACAUGAGGAUCACCCAUGUAAAUGAAAGAUAGCAGCAAAGCUGCAAUGUAGAAGGCUGCUCCGUCA")
"29.2 nM"

[ask] Entry `GCGUUACAUGAGGAUCACCCAUGUGAGGAUAUGGUGCGGUACUGUCCUGUCGCGUACUCCAGAAGGCACGGGUG` has what apparent Kd?
[reply] 150 nM

[ask] Item `CGCCUGCGUAGAAUUAGCAGCUGACAGGAUAUGACAUGAGGAUCACCCAUGUGAAUUAAGAAGAGUCAGAAGGGUCACGACGCG` has what recorded apparent Kd?
[reply] 9.4 nM

[ask] Could you share which apparent Kd value was measured for `UUGUGCAAAGGAUAUACGUCCGACCUCGUGGAACUGAGAAUACAUGAGGAUCACCCAUGUAGAAGGUUGCCGAG` ?
[reply] 11.7 nM

[ask] Given the sequence `AUGAGUAAAGCAGGAUAUCUAUUGUCUCUGUAACAUGAGGAUCACCCAUGUAGAGAAGGGCUUAGUCAUUCUCUUCGGAGUUGU` , what is its reported apparent Kd?
[reply] 17.4 nM

[ask] For the sequence `GGAUCGAGUGUGAGGAUAUGCUGGUCCUUGGAUCAGCAGAAGGCACAUGAGGAUCACCCAUGUGAAAACGGUCC` , what apparent Kd is on record?
[reply] 26.6 nM

[ask] apparent Kd lookup needed for `GUAAUUAAGAGAGGAUAUUGACAUGAGGAUCACCCAUGUAUUUGGGAGUGUUUACUGAAUUCUUACGAGAAGGCUUUUAAAUAC` , thanks.
[reply] 89.2 nM

[ask] What measured apparent Kd goes with `AAUUAUUUAUGAGGAUAUUGUGGUGAAACACCACAAGAAGGCAUGAUACACAUGAGGAUCACCCAUGUGAGCCUGAUGCAUAUA` ?
[reply] 17.2 nM

[ask] GET /values?readout=apparent Kd&item= `GGGCGCCACGUAGGAUAUCUUCCGUAUGGGUCCCAUCAUAGCACAUGAGGAUCACCCAUGUGGGUAGAGAAGGACGGUUUGCCG`
[reply] 221 nM

[ask] Looking for the measured apparent Kd of `CCGCAGUUAGGAUAUACAUGAGGAUCACCCAUGUGUCCAUCUGUAAUAAGACAGGAUAGUAGAAGGAACUGGCG` , can you help?
[reply] 14.8 nM

[ask] What does the data say about its apparent Kd? Entry: `AUCUGGUCCUUACGCCCACAUGAGGAUCACCCAUGUCAGGCACAGGAUAUCCCGGGAGCUUUGGUGGAGAAGGGUGCCCUUGGG`
[reply] 55.6 nM

[ask] Recorded apparent Kd for `AUUACCAGAGGAUAUGCGAGGGUGUACCUCCCACAGCGAACACAUGAGGAUCACCCAUGUAGAAGGCUGAACAU` , please?
[reply] 38.9 nM

[ask] Value lookup for apparent Kd; key = `GCUGACGAUGUAGGAUAUCUCGACGAUAAGUCGAGAGAAGGACAUGAGGAUCACCCAUGUAAAACUCCGUCAGCGAGGAAACUC`
[reply] 16.3 nM

[ask] Endpoint output: apparent Kd of `GAGAAGUCAGGAUAUGCAUGGCGGGACUUGCGUCGUGGCGUGCAGAAGGGACAUGAGGAUCACCCAUGUGGAGU` . Value?
[reply] 163 nM

[ask] Reported apparent Kd, sequence `AAUAUAAAAGAGCUGGAUAACUCGACAUGAGGAUCACCCAUGUAGGAUAUCAGCACGAUAAGUGCUGAGAAGGACAACCAGCUC` : ____
[reply] 14.7 nM

====

Listing of recorded apparent Kd by entry.
# System: MS2 coat protein
# Protocol summary: apparent Kd, MS2 coat protein; higher = weaker binding; RNA-MaP array; FMN 200 µM where present
# Condition context: ligand present: flavin mononucleotide; designed as: ON switch for flavin mononucleotide

Examples with answers:
>>> result("CGAGUACAUGAGGAUCACCCAUGUAAUGAAUUGUCAGGAUAUGGAGAUUGAUGACAUGCGCCAGAAGGGACAUCUG")
"40.8 nM"
>>> result("AAUUAAGAUCUAGGAUAUCACGUCGAUUAGACGUGAGAAGGAGAUCAUAACAUGAGGAUCACCCAUGUAUUACAUGAAUUAAUU")
"25.9 nM"
>>> result("GGACAUUUACAGAAGGGCAAGUUGGAUCGCGGAUAACGCGAUCCGACUUGCAGGAUAUGUUGAACAUGAGGAUCACCCAUGUCC")
"9.8 nM"

[ask] Using the record for `GUACAGAUCACAGGAUAUCACGUCGUUUAGACGUGAGAAGGGUGAUCACACAUGAAUAUUAAUACAUGAGGAUCACCCAUGUAC` , report its apparent Kd.
[reply] 97.7 nM

[ask] For `ACAUGAGGAUCACCCAUGUUGAAUUAGGAUAUUUGACUGCACAUGAGGUUCUCCCAUGUUCUACCGGAGAAGGGAUUAAUAAUU` , what is its reported apparent Kd?
[reply] 240 nM

[ask] Which apparent Kd value is on record for `CUGGUUCUCGUAGGAUAUGUAGGAUAUGCCUACAUGAGGAUCACCCAUGUUCGCAUGGCAGAAGGACAGAAGGACGAUCACCAC` ?
[reply] 20.7 nM

[ask] Param item = `UUAACAUGAGGAUCACCCAUGUCGUGCUAGAUGAGUUCUGGUGAGGAUAUACAUGGUAAAGAACUGUAGAAGGCACUGGGUACA` ; retrieve measured apparent Kd.
[reply] 336 nM

[ask] Give the measured apparent Kd of `ACGGUGGUCACAGGAUAUCCAGCCCGCGUGCCUGGAGAAGGGUGACUCAGAACCACAUGAGGAUCACCCAUGUGCCUUGCCGUA` .
[reply] 33.4 nM

[ask] Record request: apparent Kd value, item `UUGCCUCAGAACAUGAGGAUCACCCAUGUGCUGCGGGCAUCGUAGGAUAUGAUGGUAUGAUACCAUCAGAAGGAUGAUGGUACC`
[reply] 5.77 nM

[ask] Could you tell me which apparent Kd is on file for `GUAGCAUUGUGAGGAUAUCCAUAUCCGAAAGGGACAUGAGGAUCACCCAUGUCGCGAAAGCGGUGGGAGAAGGCACUAUGCUAC` ?
[reply] 4.03 nM

[ask] Would you mind telling me what apparent Kd value was observed for `CGUUGAUAAUAUCUUCACAUGAGGAUCACCCAUGUCGCUCGACAGGAUAUAUUUGAGUUGUUUAAGUAGAAGGGUCGCAGAUGC` ?
[reply] 136 nM

[ask] Entry `CCGAAUGUCACAGGAUAUGGUCCGGGCACGCGACCAGAAGGGUGAUCUCACAUGAGGAUCACCCAUGUGCAGGCGUAAGGCUGC` : reported apparent Kd = ?
[reply] 193 nM

[ask] Any idea what apparent Kd was measured for `UGCAUCAAUGAAGGAUAUCUAUGUCCAACAUGAGGAUCACCCAUGUUGAGGAUUACCUAUGUGUAGGAGAAGGUCAAUAUAACU` ?
[reply] 6.12 nM

[ask] May I ask what apparent Kd has been recorded for `ACACGACAUGAGGAUCACCCAUGUUUCCGAUUCACAGGAUAUGGGACAUCCGGAGGGUGACCAGAAGGGUGACUCG` ?
[reply] 28.3 nM
